# system.name: human F508del CFTR (Homo sapiens, UniProt P13569, DEL508-508)
# Construct: expressed in transfected cells; host or cells: Fisher Rat Thyroid (FRT) cells
# Sequence (P13569 with tags, fused parts or gaps DEL508-508): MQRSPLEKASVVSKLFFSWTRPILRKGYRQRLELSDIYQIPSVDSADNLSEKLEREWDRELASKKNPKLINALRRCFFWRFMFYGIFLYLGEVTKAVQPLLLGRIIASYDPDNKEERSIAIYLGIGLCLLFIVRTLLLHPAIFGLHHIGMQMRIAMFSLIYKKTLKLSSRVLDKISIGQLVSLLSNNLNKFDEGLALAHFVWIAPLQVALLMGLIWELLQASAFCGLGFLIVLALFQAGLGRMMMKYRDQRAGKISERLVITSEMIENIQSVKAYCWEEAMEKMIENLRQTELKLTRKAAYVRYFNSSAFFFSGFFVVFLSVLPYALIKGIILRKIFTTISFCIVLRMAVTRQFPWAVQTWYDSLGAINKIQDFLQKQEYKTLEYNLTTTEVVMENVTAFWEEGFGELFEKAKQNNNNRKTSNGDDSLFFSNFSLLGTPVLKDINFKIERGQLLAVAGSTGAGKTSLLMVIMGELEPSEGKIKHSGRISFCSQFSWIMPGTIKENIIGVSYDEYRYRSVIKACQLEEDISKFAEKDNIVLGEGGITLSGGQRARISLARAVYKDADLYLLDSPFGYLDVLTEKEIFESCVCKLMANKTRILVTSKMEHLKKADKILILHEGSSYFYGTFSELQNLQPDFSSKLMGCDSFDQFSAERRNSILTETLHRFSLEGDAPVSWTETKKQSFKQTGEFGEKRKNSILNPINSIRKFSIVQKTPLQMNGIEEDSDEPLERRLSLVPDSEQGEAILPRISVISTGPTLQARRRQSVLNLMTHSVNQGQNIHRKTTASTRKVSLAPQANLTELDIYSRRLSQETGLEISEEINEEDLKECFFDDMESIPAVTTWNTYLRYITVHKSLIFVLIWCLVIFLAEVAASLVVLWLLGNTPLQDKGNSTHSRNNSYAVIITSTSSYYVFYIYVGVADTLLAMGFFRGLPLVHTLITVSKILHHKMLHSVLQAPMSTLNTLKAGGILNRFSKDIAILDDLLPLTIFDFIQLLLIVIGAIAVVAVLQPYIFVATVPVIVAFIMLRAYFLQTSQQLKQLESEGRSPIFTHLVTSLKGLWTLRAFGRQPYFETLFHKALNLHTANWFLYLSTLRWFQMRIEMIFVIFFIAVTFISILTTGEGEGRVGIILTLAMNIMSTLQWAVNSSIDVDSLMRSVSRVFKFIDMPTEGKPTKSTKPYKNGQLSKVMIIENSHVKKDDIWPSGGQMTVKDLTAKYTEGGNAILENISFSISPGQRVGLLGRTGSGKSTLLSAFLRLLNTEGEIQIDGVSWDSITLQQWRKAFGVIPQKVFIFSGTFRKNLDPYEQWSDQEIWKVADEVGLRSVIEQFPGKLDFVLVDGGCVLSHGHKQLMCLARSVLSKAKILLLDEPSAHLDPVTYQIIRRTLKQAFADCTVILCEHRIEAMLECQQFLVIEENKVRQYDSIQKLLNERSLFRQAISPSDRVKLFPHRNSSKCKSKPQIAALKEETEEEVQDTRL
# assay.comment: CFTR-YFP High Throughput Assay
# Format: cell-based
# experimental.context: EMax normalized to the positive control; FRT cells expressing human F508del CFTR and YFP; read-out: % Efficacy
quantity: Emax

Data request: Form field - read-out: Emax; system: human F508del CFTR (Homo sapiens, UniProt P13569, DEL508-508); submitted item: `CCN(C(=O)Cn1nc(-c2ccc(S(N)(=O)=O)cc2)c2ccccc2c1=O)c1ccc2c(c1)OC(F)(F)O2`
Data returned: > 80%

As a next step, examine the compound that follows.
Data request: Form field - read-out: Emax; system: human F508del CFTR (Homo sapiens, UniProt P13569, DEL508-508); submitted item: `CCc1ccc(N(CC)C(=O)Cn2nc(C(=O)Nc3cc(Cl)ccc3C#N)c3ccccc3c2=O)cc1`
Data returned: 30 to 80%

====

# system.name: human F508del CFTR (Homo sapiens, UniProt P13569, DEL508-508)
# Construct: expressed in transfected cells; host or cells: Fisher Rat Thyroid (FRT) cells
# assay.comment: CFTR-YFP High Throughput Assay
# Type: cell-based
# experimental.context: EMax normalized to the positive control; FRT cells expressing human F508del CFTR and YFP; read-out: % Efficacy
Each record here notes measured Emax.

Data request: Please report the recorded Emax for CCN(C(=O)c1nn(-c2nccs2)c(=O)c2c1c1ccccc1n2C)c1ccccc1 [Example 170] .
Data returned: 30 to 80%

Data request: Please report the recorded Emax for CCN(C(=O)c1nn(-c2ccccc2)c(=O)c2c1c1ccccc1n2C)c1ccncn1 [Example 151] .
Data returned: 30 to 80%

Data request: Please report the recorded Emax for CCc1ccc(N(CC)C(=O)Cn2nc(Cc3cccnc3)c3ccc(C(C)(C)C)cc3c2=O)cc1 [Example 33] .
Data returned: 30 to 80%

Data request: Please report the recorded Emax for CCN(C(=O)c1nn(-c2ccc(C)cc2)c(=O)c2c1c1cc(OC)ccc1n2C)c1ccccc1 [Example 187] .
Data returned: 30 to 80%

New cases:
Data request: Please report the recorded Emax for COc1cc2c(=O)n(CC(=O)N(C)c3ccc4nc(C)oc4c3)nc(-c3cccc(F)c3)c2cc1Cl [Example 93] .
Data returned: > 80%

Data request: Please report the recorded Emax for CCN(C(=O)c1nn(-c2ccccc2)c(=O)c2c1c1ccccc1n2C)c1ccncc1 [Example 158] .
Data returned: 30 to 80%

Data request: Please report the recorded Emax for CCN(C(=O)c1nn(-c2ccc(C)cc2)c(=O)c2c1c1ccccc1n2C1CCC1)c1ccccc1 [Example 219] .
Data returned: 10 to 30%

Data request: Please report the recorded Emax for CCN(C(=O)Cn1nc(Cc2cccnc2)c2cc(C(C)(C)C)ccc2c1=O)c1ccc2c(c1)OC(F)(F)O2 [Example 49] .
Data returned: > 80%

Data request: Please report the recorded Emax for CCN(C(=O)c1nn(C2CCN(S(=O)(=O)c3ccc4c(c3)OC(F)(F)O4)CC2)c(=O)c2c1c1ccccc1n2C)c1ccccc1 [Example 200] .
Data returned: 30 to 80%

Data request: Please report the recorded Emax for CCN(C(=O)Cn1nc(Cc2cccnc2)c2c3ccccc3n(C)c2c1=O)c1ccc2c(c1)OC(F)(F)O2 [Example 238] .
Data returned: 30 to 80%

Data request: Please report the recorded Emax for CCN(C(=O)Cn1nc(Cc2cccnc2)c2c(C)cccc2c1=O)c1ccc2c(c1)OC(F)(F)O2 [Example 48] .
Data returned: 30 to 80%

Data request: Please report the recorded Emax for CCN(C(=O)Cn1nc(Cc2cccnc2)c2ccc(C(C)(C)C)cc2c1=O)c1ccc2c(c1)OC(F)(F)O2 [Example 50] .
Data returned: > 80%

Data request: Please report the recorded Emax for CCN(C(=O)c1nn(-c2ccc(C)cc2)c(=O)c2[nH]c3ccccc3c12)c1cccc(Cl)c1 [Example 221] .
Data returned: 30 to 80%

Data request: Please report the recorded Emax for CCN(C(=O)Cn1ncc2c(c1=O)c1ccccc1n2CCC#N)c1ccc2c(c1)OC(F)(F)O2 [Example 138] .
Data returned: 10 to 30%

Data request: Please report the recorded Emax for COc1ccc2c(-c3cccc(C#N)c3)nn(CC(=O)N(C)c3ccc4c(c3)OC(F)(F)O4)c(=O)c2c1 [Example 69] .
Data returned: > 80%

Data request: Please report the recorded Emax for Cn1c2ccccc2c2c(-c3ccccc3)nn(C3CCCCC3)c(=O)c21 [Example 241] .
Data returned: 30 to 80%

Data request: Please report the recorded Emax for CCN(C(=O)Cn1nc(Cc2cccnc2)c2ccc(Cl)cc2c1=O)c1ccc2c(c1)OC(F)(F)O2 [Example 54] .
Data returned: 30 to 80%

Data request: Please report the recorded Emax for CCN(CC)C(=O)c1nn(-c2ccc(C)cc2)c(=O)c2c1c1ccccc1n2C [Example 155] .
Data returned: 30 to 80%

Data request: Please report the recorded Emax for CCc1ccc(N(CC)C(=O)Cn2nc(-c3cccc4cnccc34)c3ccccc3c2=O)cc1 [Example 6] .
Data returned: 30 to 80%

Data request: Please report the recorded Emax for CCN(C(=O)c1nn(-c2ccccc2)c(=O)c2c1c1ccccc1n2C)c1cccc(Cl)c1 [Example 181] .
Data returned: 30 to 80%

Data request: Please report the recorded Emax for Cc1nc2ccc(N(C)C(=O)Cn3nc(-c4cccc(Cl)c4)c4ccc(OCc5ccccc5)cc4c3=O)cc2o1 [Example 116] .
Data returned: > 80%

Data request: Please report the recorded Emax for CCOc1ccc2c(-c3cccc(C#N)c3)nn(CC(=O)N(C)c3ccc4nc(C)oc4c3)c(=O)c2c1 [Example 109] .
Data returned: > 80%

Data request: Please report the recorded Emax for CCN(C(=O)Cn1ncc2c(c1=O)c1ccccc1n2Cc1cccc(OC)c1)c1ccc2c(c1)OC(F)(F)O2 [Example 135] .
Data returned: 30 to 80%

Data request: Please report the recorded Emax for Cc1nc2ccc(N(C)C(=O)Cn3ncc4c(c3=O)c3ccccc3n4Cc3ccc(F)cc3)cc2o1 [Example 148] .
Data returned: 30 to 80%

Data request: Please report the recorded Emax for CCOc1cccc2c(=O)n(CC(=O)N(CC)c3ccc4c(c3)OC(F)(F)O4)nc(Cc3cccnc3)c12 [Example 58] .
Data returned: 30 to 80%

Data request: Please report the recorded Emax for CCN(C(=O)Cn1ncc2c(c1=O)c1ccccc1n2Cc1ccncc1)c1ccc2c(c1)OC(F)(F)O2 [Example 143] .
Data returned: 30 to 80%
